Source listed as patent US20070281992A1.

MIC overview
# System: Methicillin-Resistant Staphylococcus aureus Isolates
# test-name: MIC assay (NCCLS broth dilution), MRSA clinical isolates
# Format: cell-based
# condition-summary: Staphylococcus aureus, MRSA isolate 2009, 24FEB06; read-out: Minimal Inhibitory Concentration
metric: MIC

> print(dat)
                               given.smiles        result
1  CO[C@@H]1[C@@H](OC(N)=O)[C@@H](O)[C@H](Oc2ccc3c(O)c(NC(=O)c4ccc(O)c(CC=C(C)C)c4)c(=O)oc3c2C)OC1(C)C  ≤ 0.04 µg/mL
2  CN(C)[C@@H]1C(O)=C(C(N)=O)C(=O)[C@@]2(O)C(O)=C3C(=O)c4c(O)cccc4[C@@](C)(O)[C@H]3C[C@@H]12    > 16 µg/mL
3  Cc1onc(-c2ccccc2)c1C(=O)N[C@@H]1C(=O)N2[C@@H]1SC(C)(C)[C@@H]2C(=O)O    > 32 µg/mL
